Molecular target: T1, extracellular portion of human CD137 fused to a histidine-containing peptide (human, UniProt Q07011 24-186)
T1 construct: extracellular domain; also called huCD137; His-tagged soluble human CD137
Assay: Attana Cell A200 QCM; antibody captured by anti-human IgG Fc; soluble human CD137-His; grade relative to (1B.3)
result_type: binding result

Examples from the recorded data:
binder	binding result
hCD137 MAB-3 (1B.10) (antibody, V domains shown) VH: QVQLVQSGAEVKKPGASVKVSCKASGYTFTSYWINWVKQAPGQGLEWIGNIYPSDSYTNYNQKFKDKATITADKSTSTAYMELSSLRSEDTAVYYCTRDYGSAYSMSTWGQGTTVTVSS VL: DIQMTQSPSSLSASVGDRVTITCRPSQDISNYLNWYQQKPDKTVKLLIYYTTRLRSGVPSRFSGSGSGTDFTFTISSLQPEDIATYFCQQGDTLPYTFGQGTKLEIK	binds
hCD137 MAB-3 (1G.4) (antibody, V domains shown) VH: QVQLVQSGAEVKKPGASVKVSCKASGYTFTSYWINWVRQAPGQGLEWAGNIYPSDSYTNYNQKFKDKATITADKSTSTAYMELSSLRSEDTAVYYCTRDYGSAYSMSTWGQGTTVTVSS VL: DIQMTQSPSSLSASVGDRVTITCQASQDISNYLNWYQQKPDKTVKLLIYYTSRLRSGVPSRFSGSGSGTDFTFTISSLQPEDIATYFCQQGDTLPYTFGQGTKLEIK	binds
hCD137 MAB-3 (1F.3) (antibody, V domains shown) VH: QVQLVQSGAEVKKPGASVKVSCKASGYTFTSYWINWVKQAPGQGLEWAGNIYPSDSYTNYNQKFKDKATITADKSTSTAYMELSSLRSEDTAVYYCTRDYGSAYSMSTWGQGTTVTVSS VL: DIQMTQSPSSLSASVGDRVTITCRPSQDISNYLNWYQQKPDKTVKLLIYYTSRLRSGVPSRFSGSGSGTDFTFTISSLQPEDIATYFCQQGDTLPYTFGQGTKLEIK	binds
hCD137 MAB-3 (1G.14) (antibody, V domains shown) VH: QVQLVQSGAEVKKPGASVKVSCKASGYTFTSYWINWVRQAPGQGLEWAGNIYPSDSYTNYNQKFKDKATITADKSTSTAYMELSSLRSEDTAVYYCTRDYGSAYSMSTWGQGTTVTVSS VL: DIQMTQSPSSLSASVGDRVTITCQASQDISNYLNWYQQKPDKTVKLLIYYTTRARSGVPSRFSGSGSGTDFTFTISSLQPEDIATYFCQQGDTLPYTFGQGTKLEIK	binds
hCD137 MAB-3 (1E.9) (antibody, V domains shown) VH: QVQLVQSGAEVKKPGASVKVSCKASGYTFTSYWINWVRQAPGQGLEWIGNIYPSDSYTNYNQKFKDKATITADKSTSTAYMELSSLRSEDTAVYYCTRDYGSAYSMSTWGQGTTVTVSS VL: DIQMTQSPSSLSASVGDRVTITCQASQDISNYLNWYQQKPDKTVKLLIYYTSRARSGVPSRFSGSGSGTDFTFTISSLQPEDIATYFCQQGDTLPYTFGQGTKLEIK	binds
hCD137 MAB-3 (1G.8) (antibody, V domains shown) VH: QVQLVQSGAEVKKPGASVKVSCKASGYTFTSYWINWVRQAPGQGLEWAGNIYPSDSYTNYNQKFKDKATITADKSTSTAYMELSSLRSEDTAVYYCTRDYGSAYSMSTWGQGTTVTVSS VL: DIQMTQSPSSLSASVGDRVTITCQASQDISNYLNWYQQKPDKTAKLLIYYTSRARSGVPSRFSGSGSGTDFTFTISSLQPEDIATYFCQQGDTLPYTFGQGTKLEIK	binds

I have this binder here, hCD137 MAB-3 (1B.11) (antibody, V domains shown) VH: QVQLVQSGAEVKKPGASVKVSCKASGYTFTSYWINWVKQAPGQGLEWIGNIYPSDSYTNYNQKFKDKATITADKSTSTAYMELSSLRSEDTAVYYCTRDYGSAYSMSTWGQGTTVTVSS VL: DIQMTQSPSSLSASVGDRVTITCRPSQDISNYLNWYQQKPDKTVKLLIYYTGRLRSGVPSRFSGSGSGTDFTFTISSLQPEDIATYFCQQGDTLPYTFGQGTKLEIK , and I need its recorded binding result.
binds

Request: hCD137 MAB-3 (1B.13) (antibody, V domains shown) VH: QVQLVQSGAEVKKPGASVKVSCKASGYTFTSYWINWVKQAPGQGLEWIGNIYPSDSYTNYNQKFKDKATITADKSTSTAYMELSSLRSEDTAVYYCTRDYGSAYSMSTWGQGTTVTVSS VL: DIQMTQSPSSLSASVGDRVTITCRPSQDISNYLNWYQQKPDKTVKLLAYYTGRLRSGVPSRFSGSGSGTDFTFTISSLQPEDIATYFCQQGDTLPYTFGQGTKLEIK
binds

And the next one, hCD137 MAB-3 (1B.4) (antibody, V domains shown) VH: QVQLVQSGAEVKKPGASVKVSCKASGYTFTSYWINWVKQAPGQGLEWIGNIYPSDSYTNYNQKFKDKATITADKSTSTAYMELSSLRSEDTAVYYCTRDYGSAYSMSTWGQGTTVTVSS VL: DIQMTQSPSSLSASVGDRVTITCQASQDISNYLNWYQQKPDKTVKLLIYYTSRLRSGVPSRFSGSGSGTDFTFTISSLQPEDIATYFCQQGDTLPYTFGQGTKLEIK ?
binds

Follow-up item: hCD137 MAB-3 (1E.14) (antibody, V domains shown) VH: QVQLVQSGAEVKKPGASVKVSCKASGYTFTSYWINWVRQAPGQGLEWIGNIYPSDSYTNYNQKFKDKATITADKSTSTAYMELSSLRSEDTAVYYCTRDYGSAYSMSTWGQGTTVTVSS VL: DIQMTQSPSSLSASVGDRVTITCQASQDISNYLNWYQQKPDKTVKLLIYYTTRARSGVPSRFSGSGSGTDFTFTISSLQPEDIATYFCQQGDTLPYTFGQGTKLEIK
binds
